Listing of recorded growth by entry.
tested on: SK-MEL-5 melanoma; assay: NCI-60 one-dose screen, 48 h (100 = growth as untreated, 0 = no growth, -100 = all killed); details: 10 µM
Compounds without any hit were thinned out: in the full panel of roughly 83,000, 20% have a hit.
Report the value in % with no unit label.

- COc1ccccc1N=Nc1c(O)ccc2cc(S(=O)(=O)O)ccc12: 103
- S=C1CCCCCN1: 107
- C1CNC(C2=NCCN2)=N1: 101
- O=[N+]([O-])c1ccc(Sc2ccncn2)c([N+](=O)[O-])c1: 93.1
- O=c1[nH]cc(Cl)cc1O: 86.6
- CNC(=S)NC(C)(C)C: 93.6
- CC(C)CCCC(=O)O: 97.2

# ---- query molecule ----
Challenge: Return reported growth; argument: CCOC(=O)/C(C#N)=C/c1cccc(C)c1
Response given: 101

* * *

test system: MALME-3M melanoma; assay: NCI-60 one-dose screen, 48 h (100 = growth as untreated, 0 = no growth, -100 = all killed); conditions: 10 µM
Compounds without any hit were thinned out: in the full panel of roughly 83,000, 20% have a hit. Active and inactive are the calls of the source. Rule for the calls: active = growth percent below 10; inactive = the rest. Where a SMILES comes first, the peptide text is derived from it. Bridges are numbered along the chain shown (N, C = ends). [ ]: non-standard residue; d: D form. The star is where a group is joined. ξ: configuration not given here. ξNMePhe(4-NMe2) = CNC(Cc1ccc(N(C)C)cc1)C(=O)O; Picolinoyl(3-OH) = O=C(c1ncccc1O)*; ξPip(4-oxo) = O=C1CCNC(C(=O)O)C1; Phg = N[CH](C(=O)O)c1ccccc1; Abu = CC[CH](N)C(=O)O
property_name: growth

Observe how each entry below is paired with its result.
• O=C1N(C[P+](c2ccccc2)(c2ccccc2)c2ccccc2)CCCN1C[P+](c1ccccc1)(c1ccccc1)c1ccccc1 = 103% (inactive)
• COCCCC/C(=N\OCCN)c1ccc(C(F)(F)F)cc1 = 112% (inactive)
• COc1ccc2c(c1)CCc1c-2n[nH]c1-c1[nH]nc2c1CCc1cc(OC)ccc1-2 = 46.6% (inactive)
• O=C(O)C(Cc1ccccc1)C(=O)O = 115% (inactive)

Challenge: Return reported growth; argument: Cc1cc2ccccc2c(O)c1C#N
Response given: 126% (inactive)

Challenge: Return reported growth; argument: Oc1ccccc1O
Response given: 138% (inactive)

Challenge: Return reported growth; argument: Cc1cc2nc(CC(=O)c3ccccc3)c(=O)[nH]c2cc1C
Response given: 101% (inactive)

Challenge: Return reported growth; argument: CC1OC(Oc2c(-c3ccc(O)c(O)c3)oc3cc(O)cc(O)c3c2=O)C(O)C(O)C1O (configuration not stated)
Response given: 110% (inactive)

Challenge: Return reported growth; argument: CCC1NC(=O)C(NC(=O)c2ncccc2O)C(C)OC(=O)C(c2ccccc2)NC(=O)C2CC(=O)CCN2C(=O)C(Cc2ccc(N(C)C)cc2)N(C)C(=O)C2CCCN2C1=O (configuration not stated) (tested in a mixture with another compound) ({Picolinoyl(3-OH)}-T[Abu]P[ξNMePhe(4-NMe2)][ξPip(4-oxo)][Phg]; ester 1-C; configuration not given here)
Response given: 55.4% (inactive)

Challenge: Return reported growth; argument: O=C(Cc1ccc(OCc2ccccc2)cc1)NCc1ccc2c(c1)OCO2
Response given: 46.6% (inactive)

Challenge: Return reported growth; argument: CCCCC/C=N/Nc1nc(C)cc(=O)[nH]1
Response given: 103% (inactive)

Challenge: Return reported growth; argument: COC(=O)c1cccnc1
Response given: 112% (inactive)

* * *

test system: MOLT-4 leukemia; experiment: NCI-60 one-dose screen, 48 h; conditions: 10 µM
This is part of a sample that, as a whole, favours compounds with a hit. Of some 83,000 tested, about 20% had one in any assay. The source made the active and inactive calls. Rule for the calls: active = growth percent below 10; inactive = the rest.
Could you please pick one outcome from this set? TRUE for active, FALSE for inactive

Consider the worked cases shown below.
- N#Cc1ccc(NC(=O)Nc2cccc(C#N)c2)cc1: FALSE
- CC(=O)CC(=O)N(C)C: FALSE
- Oc1ccccc1O: FALSE
- Oc1ccc(Cc2ccccc2)c2cccnc12: TRUE
- Cc1cc(=O)[nH]c(NN=C2CCCC2)n1: FALSE
- CC(=O)c1sc2c(c1OC(=O)c1ccc(Cl)cc1Cl)c(=O)n(-c1ccccc1)c(=S)n2-c1ccccc1: TRUE

Shifting focus to the compound that follows.
Challenge: Dear colleague, could you share the recorded outcome for O=C1C=C(O)C(=O)C=C1O when you have a moment?
Response given: FALSE

* * *

test system: MCF7 breast; test: NCI-60 one-dose screen, 48 h (100 = growth as untreated, 0 = no growth, -100 = all killed); conditions: 10 µM unless noted
Compounds without any hit were thinned out: in the full panel of roughly 83,000, 20% have a hit.
property_name: growth (%)
Report the value in % with no unit label.

Observe how each entry below is paired with its result.
• CN(C)/N=C/c1ccccc1O = 106
• CCc1ccc(/C(C#N)=C/C=C/c2ccccc2)cc1 = 16.2
• O=C(/C(=N/O)c1ccccc1)c1ccccc1 = 87.9
• O=C1N(C[P+](c2ccccc2)(c2ccccc2)c2ccccc2)CCCN1C[P+](c1ccccc1)(c1ccccc1)c1ccccc1 = 98.7
• CCOC(=O)CSc1c([N+](=O)[O-])ncn1C = 88.2
• CC(=O)c1ccc(C(C)(C)C)cc1 = 94.5
• CNS(=O)(=O)c1ccc(Cl)c(Cl)c1 = 98
• CN(C)C(C)(C)CC(C)(C)C = 101
• Cc1ccc(C(=O)c2ccccc2)c(C)c1 = 101
• COc1cc2c(cc1OC)[C@H](C(=O)O)[C@@H](c1ccc(OC(C)C)c(OC)c1)N(C)C2=O = 108

Challenge: MCF7 breast / growth / c1c(-c2cc(C3CC3)[nH]n2)n[nH]c1C1CC1 : value?
Response given: 92.8

Challenge: MCF7 breast / growth / Cc1cccc(CO)c1 : value?
Response given: 96.6

Challenge: MCF7 breast / growth / CC1(C)OC(=O)C(c2ccsc2)C(=O)O1 : value?
Response given: 104

Challenge: MCF7 breast / growth / CCC(O)CC(CC)CO (stereo not given) : value?
Response given: 97.8

Challenge: MCF7 breast / growth / COC(=O)/C=C\C(=O)OC : value?
Response given: 103

* * *

tested on: M14 melanoma; test: NCI-60 one-dose screen, 48 h (100 = growth as untreated, 0 = no growth, -100 = all killed); details: 10 µM
The panel holds about 83,000 compounds, 20% with a hit somewhere; the sample as a whole holds those more often.
Listing of recorded growth by entry.
Report the value in % with no unit label.

- CCCCCC(C)(CC(=O)O)CC(=O)O: 109

Challenge: Return reported growth; argument: COc1cccc(/C=N/NC(=S)NC2CC3CCC2C3)c1O (centres undefined)
Response given: 55.7

Challenge: Return reported growth; argument: COC(=O)C(C)Oc1ccc(OC#N)cc1 (centres undefined)
Response given: 101

Challenge: Return reported growth; argument: Cc1ccc(S(=O)(=O)O)c(C)c1
Response given: 101

Challenge: Return reported growth; argument: Cc1ccc(/C=C2\SC(=S)N(c3ccc(F)cc3)C2=O)o1
Response given: 87.5

Challenge: Return reported growth; argument: CC(C)CCOC(=O)c1ccccc1
Response given: 100

Challenge: Return reported growth; argument: COc1cc(/C=C/C(=O)c2ccccc2)cc(OC)c1OC
Response given: 74.6

Challenge: Return reported growth; argument: CCCCCCCCCCC(C)Br (centres undefined)
Response given: 112

Challenge: Return reported growth; argument: CC(=O)/C(Cc1ccccc1)=N/O
Response given: 94.8

Challenge: Return reported growth; argument: CC12CC3CC1C(C(=O)O2)C3C(=O)O (centres undefined)
Response given: 117

Challenge: Return reported growth; argument: O=C(O)C(c1ccccc1)C(O)c1ccccc1 (centres undefined)
Response given: 104

* * *

system: HCT-116 colon; test: NCI-60 one-dose screen, 48 h; settings: 10 µM
About 83,000 compounds went through this panel and 20% of them were active in at least one assay; those are over-represented in the sample as a whole. The source made the active and inactive calls. Rule for the calls: active = growth percent below 10; inactive = the rest.
Could you please pick one outcome from this set? 1 (active), 0 (inactive)

- Nc1ccccc1SC(CC(=O)c1ccccc1)c1c(Cl)cccc1Cl (stereo unspecified): 1
- CCOc1ccccc1/C=N/Nc1nc2ccccc2o1: 0
- Oc1ccc(Cc2ccccc2)c2cccnc12: 1
- Nc1nc2c(c(-c3nc(N)nc4c3CCc3ccccc3-4)n1)CCc1ccccc1-2: 0
- Nc1nc(OCc2ccccc2)c2[nH]cnc2n1: 0

Challenge: Dear colleague, could you share the recorded outcome for CCCNC(=O)c1ccc(S(N)(=O)=O)cc1 when you have a moment?
Response given: 0

* * *

Tested on: U251 CNS
Experiment: NCI-60 one-dose screen, 48 h (100 = growth as untreated, 0 = no growth, -100 = all killed)
Conditions: 10 µM
Method: Growth inhibition of the U251 human tumor cell line is measured as a screen for anti-cancer activity. Cells are grown in 96 well plates and exposed to the test compound for 48 hours. Compounds are tested at a single concentration, which is 10^-5 M for most compounds. The reported endpoint is percent growth (GI% or GIPRCNT), where numbers from 0 - 100% represent growth inhibition, and numbers from -100% - 0 represent cell death. For example, a value of 40 represents 60% growth inhibition. […]
About 83,000 compounds went through this panel and 20% of them were active in at least one assay; those are over-represented in the sample as a whole.
If the reported growth equals or exceeds 90%, assign y. If not, assign n.

* CC(=O)OCC(=O)[C@@]1(O)CC[C@H]2[C@@H]3CC[C@@H]4C[C@H](O)CC[C@]4(C)[C@H]3C(=O)C[C@@]21C | y
* O=C(CCl)Nc1ccc2c(c1)C(=O)c1ccc(NC(=O)CCl)cc1C2=O | n
* CC1(C(N)=O)CCC(C(=O)O)C1(C)C (stereo not given) | y
* CCn1c(=O)n(C)c2c(=O)n(C)c(=O)n(C)c21 | y
* C=CCc1cc(C(C)=O)cc(OC)c1O | y
* CCNCCCCNCCCCNCCCCNCCCCNCC | y
* O=c1cc(-c2ccccc2)[nH]c2c1CCCC2 | n
* O=C(O)/C=C/c1ccc2c(c1)CCC2 | y

Challenge: Answer whether growth of COc1cc(C2c3cc4c(cc3C3OC(=O)C2C3CO)OCO4)cc(OC)c1OC (stereo not given) is greater than or equal to 90%.
Response given: n

Challenge: Answer whether growth of O=P(O)(O)OCC(O)CO (stereo not given) is greater than or equal to 90%.
Response given: y

Challenge: Answer whether growth of c1ccc2c(c1)Sc1ccccc1S2 is greater than or equal to 90%.
Response given: y

Challenge: Answer whether growth of Cc1ccc(O)c(C(=O)c2ccccc2)c1 is greater than or equal to 90%.
Response given: y

Challenge: Answer whether growth of O=c1cc2oc3cc(O)c(O)cc3c(-c3ccccc3O)c-2cc1O is greater than or equal to 90%.
Response given: n

Challenge: Answer whether growth of O=C(Cc1ccccc1)Cc1ccccc1 is greater than or equal to 90%.
Response given: y
